Every entry's value here was drawn from paper PMC8273112.

Test system: P. falciparum strain Tm90–C2B
ASSAY NAME: SYBR Green growth inhibition assay, P. falciparum Tm90-C2B
Format: cell-based, Plasmodium falciparum
SETUP CONDITIONS: Plasmodium falciparum, TM90, 72 h, read-out: IC50 Tm90–C2B
MEASURED PROPERTY: pIC50
# pIC50: negative log10 of molar concentration; output just the value

Sample answers from the record:
Cl.N=C(N/N=C/c1ccc(OC(F)(F)F)cc1)N/N=C/c1ccc(OC(F)(F)F)cc1 | 6.94
N=C(N/N=C/c1ccccc1Cl)N/N=C/c1ccccc1Cl | 5.91
N=C(NN=Cc1ccc([N+](=O)[O-])cc1)NN=Cc1ccc([N+](=O)[O-])cc1 | 6.61
N#Cc1ccccc1/C=N/NC(=N)N/N=C/c1ccccc1C#N | 5.70
Cl.N#Cc1ccc(C=NNC(=N)NN=Cc2ccc(C#N)cc2)cc1 | 6.51

Please fill in: pIC50 reported for `N=C(N/N=C/c1ccc(OC(F)F)cc1)N/N=C/c1ccc(OC(F)F)cc1` = 6.71

Please fill in: pIC50 reported for `Cl.N#Cc1cccc(/C=N/NC(=N)N/N=C/c2cccc(C#N)c2)c1` = 7.51
